B1: TRAF3IP2 (parent)
chain: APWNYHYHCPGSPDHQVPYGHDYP

Variants of: B1
Test: protein stability index of a GFP-peptide fusion (GPS, HEK-293T) (PSI 1-6); higher = more stable;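 note: lentivirally expressed fusions sorted by FACS into six bins by GFP to DsRed ratio, PSI derived from sequencing read proportions per bin multiplied by bin number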
Conditions: c terminus: a fixed tail appended
property: protein stability index

Observe how each entry below is paired with its result.
[
  {
    "change": "H6Q",
    "result": 2.97
  },
  {
    "change": "Y23A",
    "result": 2.85
  },
  {
    "change": "A1P",
    "result": 2.71
  },
  {
    "change": "P2V",
    "result": 2.45
  },
  {
    "change": "P18H",
    "result": 2.17
  }
]

As a next step, examine the variant that follows.
Sample N4F — what was its protein stability index?
2.63
